Target: recombinant human CB1 receptor (Homo sapiens)
Construct: expressed in transfected cells; host or cells: CHO cells (membranes)
Experiment: Cannabinoid Receptor-1 (CB1) Binding Assay
Property Measured: pIC50
Scale for pIC50: -log10 of concentration given in mol/L; no unit attached.

Req: Using the record for `O=C1CC2(CCCCC2)Oc2nc(-c3ccccc3Cl)c(-c3ccc(Cl)cc3)cc21` , report its pIC50.
Resp: 8.10

----------
Target: recombinant human CB1 receptor (Homo sapiens, UniProt P21554)
Construct: expressed in transfected cells; host or cells: CHO cells (membranes)
Sequence (P21554 whole entry): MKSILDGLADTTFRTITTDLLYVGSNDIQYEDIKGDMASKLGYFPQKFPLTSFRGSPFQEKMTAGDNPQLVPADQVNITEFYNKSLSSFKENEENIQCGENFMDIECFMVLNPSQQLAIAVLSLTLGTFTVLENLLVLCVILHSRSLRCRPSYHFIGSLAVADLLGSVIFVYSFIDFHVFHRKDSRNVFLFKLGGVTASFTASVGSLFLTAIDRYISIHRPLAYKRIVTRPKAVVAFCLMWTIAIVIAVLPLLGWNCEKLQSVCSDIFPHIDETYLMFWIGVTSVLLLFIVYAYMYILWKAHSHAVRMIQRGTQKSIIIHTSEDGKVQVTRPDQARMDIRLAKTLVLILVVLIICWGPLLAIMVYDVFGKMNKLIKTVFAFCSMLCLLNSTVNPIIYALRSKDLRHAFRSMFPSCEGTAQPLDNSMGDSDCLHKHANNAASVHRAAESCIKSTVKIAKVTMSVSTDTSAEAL
Assay: Cannabinoid Receptor-1 (CB1) Binding Assay
Settings: [3H]CP-55940 0.6 nM, CHO cell membranes; read-out: CB1 binding IC50
Listed here are compounds together with their documented IC50.
Lab book: enter the figure in nM, no units written.

Examples with their reported IC50 follow.
CN(C)C(=O)NC1CC(C)(C)Oc2nc(-c3ccc(Cl)cc3Cl)c(-c3ccc(Cl)cc3)cc21 (centres unmarked); 2
CC(C)(C)C1CC(=O)c2cc(-c3ccc(Cl)cc3)c(-c3ccccc3Cl)nc2O1 (centres unmarked); 2
CC1(C)CC(Nc2ccccn2)c2cc(-c3ccc(Cl)cc3)c(-c3ccc(Cl)cc3Cl)nc2O1 (centres unmarked); 2
Cc1cc(NC2CC(C)(C)Oc3nc(-c4ccc(Cl)cc4Cl)c(-c4ccc(Cl)cc4)cc32)n[nH]1 (centres unmarked); 10

Attention now turns to another entry.
Req: Using the record for CNC(=O)C(=O)NC1CC(C)(C)Oc2nc(-c3ccc(Cl)cc3Cl)c(-c3ccc(Cl)cc3)cc21 (centres unmarked) , report its IC50.
Resp: 2
